- Target Under Test: T1, human DLL3 on SHP-77 cells (human, UniProt Q9NYJ7 27-618)
- T1 construct: also called DLL3-expressing cells (SHP-77)
- T1 sequence: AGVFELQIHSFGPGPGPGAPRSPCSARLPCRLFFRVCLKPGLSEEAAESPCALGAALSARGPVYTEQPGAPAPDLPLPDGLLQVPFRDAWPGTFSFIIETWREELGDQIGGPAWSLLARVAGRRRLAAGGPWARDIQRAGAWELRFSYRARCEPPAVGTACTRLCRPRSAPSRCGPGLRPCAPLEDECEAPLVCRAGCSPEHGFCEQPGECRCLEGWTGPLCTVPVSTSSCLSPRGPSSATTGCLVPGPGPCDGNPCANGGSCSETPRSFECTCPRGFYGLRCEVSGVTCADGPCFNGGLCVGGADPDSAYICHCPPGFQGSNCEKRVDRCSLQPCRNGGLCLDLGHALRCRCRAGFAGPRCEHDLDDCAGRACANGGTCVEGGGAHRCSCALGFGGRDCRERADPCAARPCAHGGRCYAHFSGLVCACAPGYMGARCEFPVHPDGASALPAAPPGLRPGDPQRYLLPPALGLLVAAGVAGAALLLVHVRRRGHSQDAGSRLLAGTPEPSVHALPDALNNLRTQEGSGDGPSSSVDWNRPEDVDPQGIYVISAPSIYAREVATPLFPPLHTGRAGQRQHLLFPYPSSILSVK
- Test Protocol: flow cytometry, SHP-77 cells
Metric: Top MFI

>>> readout_value("H-46A5A4 mouse hybridoma-derived humanized anti-DLL3 antibody (antibody, V domains shown) VH: QVQLVQSGAEVKKPGASVKVSCKASGYTFTDHTIHWVRQAPGQGLEWMGYIYPRDGYTMYNEKFKGRVTMTRDTSTSTVYMELSSLRSEDTAVYYCARAFHALDYWGQGTLVTVSS VL: DIQMTQSPSSLSASVGDRVTITCSASQGISNYLNWYQQKPGKAPKLLIYYTSSLHSGVPSRFSGSGSGTDFTFTISSLQPEDIATYYCQQYSKLPYTFGGGTKLEIK")
"1520 MFI"
>>> readout_value("H2-45E4D7 mouse hybridoma-derived humanized anti-DLL3 antibody (antibody, V domains shown) VH: QVQLVQSGAEVKKPGASVKVSCKASGYTFTSHWITWVRQAPGQGLEWMGDIYPISGSTNNNEKFRNRVTMTRDTSTSTVYMELSSLRSEDTAVYYCAKIITVGGAYVMDYWGQGTLVTVSS VL: EIVMTQSPATLSVSPGERATLSCRASQSVRNNLHWYQQKPGQAPRLLIKYVSQSISGIPARFSGSGSGTEFTLTISSLQSEDFAVYYCQQSNSWPLTFGGGTKLEIK")
"1610 MFI"
>>> readout_value("45E4D7 mouse hybridoma-derived anti-DLL3 chimeric antibody (antibody, V domains shown) VH: QVQLQQPGAELVKPGTSVKLSCKASGYTFTSHWITWVKQRPGQGLEWIGDIYPISGSTNNNEKFRNKATLTVDTSSSTAYMQLSSLTSEDSAVYFCAKIITVGGAYVMDYWGQGTSVTVSS VL: DIVLTQSPVTLSVTPGDSVSLSCRASQSVRNNLHWYQQKSHESPRLLIKYVSQSISGIPSRFSGSGSGTDFTLSINSVETEDFGVYFCQQSNSWPLTFGAGTKLELK")
"1560 MFI"
>>> readout_value("H1-45E4D7 mouse hybridoma-derived humanized anti-DLL3 antibody (antibody, V domains shown) VH: QVQLVQSGAEVKKPGASVKVSCKASGYTFTSHWITWVRQAPGQGLEWMGDIYPISGSTNNNEKFRNRVTMTRDTSTSTVYMELSSLRSEDTAVYYCAKIITVGGAYVMDYWGQGTLVTVSS VL: EIVMTQSPATLSVSPGERATLSCRASQSVRNNLHWYQQKPGQAPRLLIYYVSQSISGIPARFSGSGSGTEFTLTISSLQSEDFAVYYCQQSNSWPLTFGGGTKLEIK")
"1590 MFI"
>>> readout_value("H2-39E2D11 mouse hybridoma-derived humanized anti-DLL3 antibody (antibody, V domains shown) VH: QVQLVQSGAEVKKPGASVKVSCKASGYTFISYWITWVRQAPGQGLEWMGDIYPGSGSTTNYNEKFKSRVTMTRDTSTSTVYMELSSLRSEDTAVYYCARETTVGGAYAMDYWGQGTLVTVSS VL: EIVLTQSPATLSLSPGERATLSCRASQSINNNLHWYQQKPGQAPRLLIKYVSQSISGIPARFSGSGSGTDFTLTISSLEPEDFAVYYCQQTNSWPLTFGGGTKLEIK")
"1570 MFI"
